# assayed system: UniProt:Q86WV6
# Sequence (Q86WV6 whole entry H232R): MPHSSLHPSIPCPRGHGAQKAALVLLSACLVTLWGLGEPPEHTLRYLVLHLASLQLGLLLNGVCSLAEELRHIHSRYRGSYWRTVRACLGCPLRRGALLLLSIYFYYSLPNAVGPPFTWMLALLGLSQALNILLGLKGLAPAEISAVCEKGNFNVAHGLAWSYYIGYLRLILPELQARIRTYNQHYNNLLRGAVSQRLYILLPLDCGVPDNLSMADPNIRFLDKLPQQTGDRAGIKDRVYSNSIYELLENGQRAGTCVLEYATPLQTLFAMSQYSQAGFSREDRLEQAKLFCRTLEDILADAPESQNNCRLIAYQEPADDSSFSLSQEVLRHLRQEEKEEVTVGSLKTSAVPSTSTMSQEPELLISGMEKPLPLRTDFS
# protocol notes: Fluorescence Thermal Shift assay (hSTING FTS binding assay);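 note: STING preincubated with compound for 20 min in HEPES NaCl buffer pH 7.5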
# stated conditions: ΔTm, STING 0.1 mg/mL, SyproOrange, 25 to 99° C.
Where a name gives a salt, the structure may show the parent alone.
reported metric: hSTING FTS binding assay (ΔT ° C.)

// solved cases for hSTING FTS binding assay (ΔT ° C.) follow
molecule	reported metric	assay result
Cc1cnc(N2C[C@@H](F)C[C@H](N(Cc3ccnc(C)c3)Cc3cn(C4CC4)c4cc(N5CCC[C@H](O)C5)c(F)cc4c3=O)C2)cn1	hSTING FTS binding assay (ΔT ° C.)	++ (10<ΔTm<20° C.)
Cc1ccc(N2CCC[C@H](N(Cc3ccnc(C)c3)Cc3cn(CCN)c4ccccc4c3=O)C2)cn1	hSTING FTS binding assay (ΔT ° C.)	+ (ΔTm≤10° C.)
Cc1ccc(N2CCC[C@H](N(Cc3ccnc(C)c3)Cc3cn(C4CC4)c4cc(N5CCC(F)(CN)C5)c(F)cc4c3=O)C2)cn1 (stereo partly shown)	hSTING FTS binding assay (ΔT ° C.)	+++ (ΔTm≥20° C.)
Cc1ccc(N2CCC[C@H](N(Cc3ccnc(C)c3)Cc3cn(C)c4cc(N5CC[C@@H](O)C5)ccc4c3=O)C2)cn1	hSTING FTS binding assay (ΔT ° C.)	++ (10<ΔTm<20° C.)
CNC1CCN(c2cc3c(cc2F)c(=O)c(CN(Cc2ccnc(C)c2)[C@H]2CCCN(c4ccc(C)nc4)C2)cn3C2CC2)C1 (stereo partly shown)	hSTING FTS binding assay (ΔT ° C.)	+++ (ΔTm≥20° C.)
Cc1ccc(N2CCC[C@H](N(Cc3ccnc(C)c3)Cc3cn(C4CC4)c4cc(N5CCC[C@H](N)C5)c(F)cc4c3=O)C2)cn1	hSTING FTS binding assay (ΔT ° C.)	+++ (ΔTm≥20° C.)
Cc1cc(CN(Cc2cn(C3CC3)c3cc(OCCO)c(F)cc3c2=O)[C@H]2CCCN(c3cnccn3)C2)ccn1.Cl	hSTING FTS binding assay (ΔT ° C.)	++ (10<ΔTm<20° C.)
Cc1cc(CN(Cc2cn(C(C)C)c3cc(N4CC[C@@H](O)C4)ccc3c2=O)[C@H]2CCCN(c3ccnnc3)C2)ccn1	hSTING FTS binding assay (ΔT ° C.)	+ (ΔTm≤10° C.)
Cc1ccc(N2CCC[C@H](N(Cc3ccnc(N)c3)Cc3cn(C4CC4)c4cc(F)c(F)cc4c3=O)C2)cn1 [Example 5, Hydrochloride]	hSTING FTS binding assay (ΔT ° C.)	+++ (ΔTm≥20° C.)
Cc1ccc(N2CCC[C@H](N(Cc3ccnc(C)c3)Cc3cn(C4CC4)c4cc(N5CC[C@@H](N)C(F)(F)C5)c(F)cc4c3=O)C2)cn1.Cl (single isomer, unassigned)	hSTING FTS binding assay (ΔT ° C.)	+++ (ΔTm≥20° C.)

Task: Return value of hSTING FTS binding assay (ΔT ° C.) for input Cc1cc(CN(Cc2cn(C)c3ccccc3c2=O)[C@H]2CCCN(c3cccc(N)c3)C2)ccn1.Cl , no commentary.
Result: + (ΔTm≤10° C.)

Task: For the molecule Cc1ccc(N2CCC[C@H](N(Cc3ccnc(C)c3)Cc3cn(C4CC4)c4cc(N5CC[C@H](N)C(F)(F)C5)c(F)cc4c3=O)C2)cn1.Cl (single isomer, unassigned) , give its reported hSTING FTS binding assay (ΔT ° C.).
Result: +++ (ΔTm≥20° C.)

Task: Give the reported hSTING FTS binding assay (ΔT ° C.) for this molecule. Cc1cc(CN(Cc2cn(C3COC3)c3ccccc3c2=O)[C@H]2CCCN(c3ccc(N)nc3)C2)ccn1
Result: +++ (ΔTm≥20° C.)

Task: Hello, please tell me recorded hSTING FTS binding assay (ΔT ° C.) for this one: Cc1ccc(N2CCC[C@H](N(Cc3ccnc(C)c3)Cc3cn(C4CC4)c4cc(N5CC[C@@H](CN)C5)c(F)cc4c3=O)C2)cn1.Cl
Result: +++ (ΔTm≥20° C.)

Task: Answer with the recorded hSTING FTS binding assay (ΔT ° C.) for the molecule listed here: COc1cc(CN(Cc2cn(C3CC3)c3cc(F)c(F)cc3c2=O)[C@H]2CCCN(c3ccc(N)nc3)C2)ccn1.Cl
Result: +++ (ΔTm≥20° C.)

# credit: patent US12655124B2
